# Target: PIK3CA_C242 (Homo sapiens, UniProt P42336)
# Construct: endogenous in cells
# Sequence (P42336 whole entry): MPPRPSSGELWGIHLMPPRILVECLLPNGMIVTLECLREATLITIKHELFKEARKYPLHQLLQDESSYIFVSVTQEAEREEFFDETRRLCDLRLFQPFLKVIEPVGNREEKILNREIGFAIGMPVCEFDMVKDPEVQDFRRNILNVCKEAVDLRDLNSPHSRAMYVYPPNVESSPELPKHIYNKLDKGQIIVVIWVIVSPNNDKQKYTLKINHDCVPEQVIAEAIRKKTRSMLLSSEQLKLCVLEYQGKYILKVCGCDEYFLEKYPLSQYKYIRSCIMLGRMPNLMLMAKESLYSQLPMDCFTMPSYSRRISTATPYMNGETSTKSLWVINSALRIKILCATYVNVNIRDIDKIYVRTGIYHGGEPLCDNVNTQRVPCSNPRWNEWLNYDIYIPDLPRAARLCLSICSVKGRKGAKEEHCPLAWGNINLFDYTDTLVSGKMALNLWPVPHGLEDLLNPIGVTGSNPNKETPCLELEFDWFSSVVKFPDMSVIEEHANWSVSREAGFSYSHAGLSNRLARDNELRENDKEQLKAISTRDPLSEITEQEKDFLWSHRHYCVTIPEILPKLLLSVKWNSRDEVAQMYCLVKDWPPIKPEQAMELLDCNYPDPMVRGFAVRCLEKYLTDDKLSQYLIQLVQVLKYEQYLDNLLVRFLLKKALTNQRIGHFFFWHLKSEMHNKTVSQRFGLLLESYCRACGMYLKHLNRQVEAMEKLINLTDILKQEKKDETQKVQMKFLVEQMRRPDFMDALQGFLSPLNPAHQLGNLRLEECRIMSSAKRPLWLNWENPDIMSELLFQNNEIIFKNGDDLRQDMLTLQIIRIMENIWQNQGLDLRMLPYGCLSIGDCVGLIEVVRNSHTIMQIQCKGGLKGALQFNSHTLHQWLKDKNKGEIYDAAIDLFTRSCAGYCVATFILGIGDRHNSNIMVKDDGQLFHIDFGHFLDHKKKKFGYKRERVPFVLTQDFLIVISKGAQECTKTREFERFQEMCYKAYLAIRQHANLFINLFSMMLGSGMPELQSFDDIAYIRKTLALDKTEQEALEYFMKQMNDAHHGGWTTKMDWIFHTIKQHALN
# Sequence (P27986 whole entry partner): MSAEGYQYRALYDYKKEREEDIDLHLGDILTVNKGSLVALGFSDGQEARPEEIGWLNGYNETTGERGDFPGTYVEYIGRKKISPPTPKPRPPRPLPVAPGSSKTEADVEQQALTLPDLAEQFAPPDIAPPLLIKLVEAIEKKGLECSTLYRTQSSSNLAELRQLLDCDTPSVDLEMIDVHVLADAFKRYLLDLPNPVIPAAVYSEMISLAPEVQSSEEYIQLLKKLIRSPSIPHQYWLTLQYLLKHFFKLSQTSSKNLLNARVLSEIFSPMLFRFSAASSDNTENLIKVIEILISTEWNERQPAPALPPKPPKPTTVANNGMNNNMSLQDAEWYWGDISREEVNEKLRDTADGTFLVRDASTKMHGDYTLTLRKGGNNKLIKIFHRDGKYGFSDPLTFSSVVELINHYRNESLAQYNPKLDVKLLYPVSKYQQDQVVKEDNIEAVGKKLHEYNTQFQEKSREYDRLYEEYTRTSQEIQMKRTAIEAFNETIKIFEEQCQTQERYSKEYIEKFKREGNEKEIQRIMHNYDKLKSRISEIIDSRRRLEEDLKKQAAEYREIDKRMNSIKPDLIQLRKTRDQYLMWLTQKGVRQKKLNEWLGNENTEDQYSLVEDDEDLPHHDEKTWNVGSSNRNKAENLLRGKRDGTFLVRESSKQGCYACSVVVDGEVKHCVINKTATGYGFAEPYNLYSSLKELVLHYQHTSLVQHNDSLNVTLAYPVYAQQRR
# Assay Notes: Proteomic TE50 (IA-DTB / TMT mass spectrometry) in Jurkat cell lysate
# Condition: 1 hour at rt, 7-point dose response
pIC50: −log10 of the molar value.
Reported pIC50 values are given for each entry in this list.

>  <Molecule>
COc1ccc(S(=O)(=O)N2CCC(F)(C(=O)N[C@H](C)/C=C\S(C)(=O)=O)CC2)c(-c2cccc(Cl)c2)c1 [Compound 22]

>  <Target>
PIK3CA_C242 (Homo sapiens, UniProt P42336)

>  <pIC50>
6.11

$$$$
>  <Molecule>
COc1cccc(COc2cccc(-c3cc(Cl)ccc3S(=O)(=O)N3CCC(F)(C(=O)N[C@@H](C)/C=C\S(C)(=O)=O)CC3)c2)c1 [Compound 261]

>  <Target>
PIK3CA_C242 (Homo sapiens, UniProt P42336)

>  <pIC50>
6.14

$$$$
>  <Molecule>
CS(=O)(=O)/C=C/CNC(=O)C1(F)CCN(S(=O)(=O)c2ccc(Cl)cc2-c2ccccc2)CC1 [Compound 37]

>  <Target>
PIK3CA_C242 (Homo sapiens, UniProt P42336)

>  <pIC50>
6.53

$$$$

Reference source: patent US20250026721A1
